# Tested on: S. Typhimurium SL1344 (sifB::gfp) in RAW 264.7 macrophages
# Experimental protocol: SAFIRE macrophage assay: intracellular bacterial load (GFP signal within macrophages)
# Type: cell-based, Salmonella enterica serotype Typhimurium
# Stated conditions: 25 uM; 'Toxic' given instead of a score
Assay metric: 25 uM Avg Antibacterial Score

| Molecule | Assay metric | Numeric readout |
| --- | --- | --- |
| OC(COc1ccccc1F)CN1CCC(Nc2nccc(C(F)(F)F)n2)CC1 (stereo not shown) [CU105] | 25 uM Avg Antibacterial Score | 14 |
| CC(C)C(=O)NC1CCN(CC(O)COc2ccc(Cl)c(Cl)c2)C1 (stereo not shown) [CU069] | 25 uM Avg Antibacterial Score | 52 |
| OC(COc1ccc(F)c(F)c1)CN1CCC(Nc2nccc(C(F)(F)F)n2)CC1 (stereo not shown) [CU169] | 25 uM Avg Antibacterial Score | 6 |
| OC(COc1ccc(Cl)c(Cl)c1)CN1CCN(C2COC2)CC1 (stereo not shown) [CU181] | 25 uM Avg Antibacterial Score | 94 |
| N#Cc1ccc(OCC(O)CN2CCC(Nc3nccc(C(F)(F)F)n3)C2)cc1 (stereo not shown) [CU094] | 25 uM Avg Antibacterial Score | 41 |
| NC1CCN(CC(O)COc2ccc(F)cc2F)C1 (stereo not shown) [CU167] | 25 uM Avg Antibacterial Score | 58 |
| OC(CNC1CCNCC1)COc1ccc(Cl)cc1Cl (stereo not shown) [CU201] | 25 uM Avg Antibacterial Score | 13 |
| OC(COc1ccc(Cl)c(Cl)c1)CN1CCC2(CCN2)C1 (stereo not shown) [CU149] | 25 uM Avg Antibacterial Score | 53 |
| COCCN1CCN(CC(O)COc2ccc(Cl)c(Cl)c2)CC1 (stereo not shown) [CU211] | 25 uM Avg Antibacterial Score | 50 |
| OC(COc1ccc(Cl)c(Cl)c1)CN1CCC2(CCOCC2)C1 (stereo not shown) [CU129] | 25 uM Avg Antibacterial Score | 39 |
| NC(=O)N1CCN(CC(O)COc2ccc(Cl)c(Cl)c2)CC1 (stereo not shown) [CU067] | 25 uM Avg Antibacterial Score | 101 |
| OC(COc1ccc(Cl)c(Cl)c1)CN1CCC(Nc2nccs2)CC1 (stereo not shown) [CU051] | 25 uM Avg Antibacterial Score | 45 |
| CO[C@H]1CCN(CC(O)COc2ccc(Cl)c(Cl)c2)C1 (stereo partly shown) [CU126] | 25 uM Avg Antibacterial Score | 47 |
| OC(COc1ccc(Cl)c(Cl)c1)CN1CCC2(CCO2)CC1 (stereo not shown) [CU229] | 25 uM Avg Antibacterial Score | 83 |
| OC(CNC1CCNCC1)COc1ccc(Cl)c(Cl)c1 (stereo not shown) [CU174] | 25 uM Avg Antibacterial Score | 18 |
| CCN(CC)C(=O)C1CCN(CC(O)COc2ccc(Cl)c(Cl)c2)CC1 (stereo not shown) [CU059] | 25 uM Avg Antibacterial Score | 46 |
| Cc1nnc(CN(C)CC(O)COc2ccc(Cl)c(Cl)c2)o1 (stereo not shown) [CU130] | 25 uM Avg Antibacterial Score | 85 |
| OC(COc1ccc(Cl)c(Cl)c1)CN1CCN(C2CCOC2)CC1 (stereo not shown) [CU180] | 25 uM Avg Antibacterial Score | 82 |
| COc1cccc(OCC(O)CN2CCC(Nc3nccc(C(F)(F)F)n3)CC2)c1 (stereo not shown) [CU081] | 25 uM Avg Antibacterial Score | 17 |
| OC(COc1ccc(Cl)c(Cl)c1)CN1CCC(n2ccnc2)CC1 (stereo not shown) [CU179] | 25 uM Avg Antibacterial Score | 19 |
| CN(CC(O)COc1ccc(Cl)c(Cl)c1)C1CCOC1 (stereo not shown) [CU122] | 25 uM Avg Antibacterial Score | 81 |
